Where do these numbers come from? They come from paper PMC10301845.

# TARGET OF ASSAY: M4 (Homo sapiens)
# Sequence (P08173 whole entry): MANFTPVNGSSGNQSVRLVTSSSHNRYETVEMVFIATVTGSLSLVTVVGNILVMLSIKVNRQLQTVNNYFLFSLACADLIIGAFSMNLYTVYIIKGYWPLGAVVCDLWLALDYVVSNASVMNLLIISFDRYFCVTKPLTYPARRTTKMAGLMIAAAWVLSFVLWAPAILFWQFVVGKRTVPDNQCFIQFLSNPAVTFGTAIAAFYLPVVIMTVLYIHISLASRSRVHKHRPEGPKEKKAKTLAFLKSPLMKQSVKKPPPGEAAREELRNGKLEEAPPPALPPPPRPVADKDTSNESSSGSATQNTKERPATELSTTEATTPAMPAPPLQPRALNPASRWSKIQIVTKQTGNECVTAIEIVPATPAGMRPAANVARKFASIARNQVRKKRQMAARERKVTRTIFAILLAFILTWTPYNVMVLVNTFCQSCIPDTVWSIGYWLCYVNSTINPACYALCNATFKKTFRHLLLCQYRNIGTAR
RECORDED ENDPOINT: Ki (nM)

[[record]]
smiles_notation = "CNc1nc(C)c(C)c2c1CN(C(=O)C[C@H]1C[C@@H]1c1ccc(F)nc1)C2"
target_of_assay = "M4 (Homo sapiens)"
recorded_endpoint = "Ki"
unit_abbreviation = "nM"
result_number = 0.16


---

# TARGET OF ASSAY: M4 (Rattus norvegicus, UniProt P08485)
# Sequence (P08485 whole entry): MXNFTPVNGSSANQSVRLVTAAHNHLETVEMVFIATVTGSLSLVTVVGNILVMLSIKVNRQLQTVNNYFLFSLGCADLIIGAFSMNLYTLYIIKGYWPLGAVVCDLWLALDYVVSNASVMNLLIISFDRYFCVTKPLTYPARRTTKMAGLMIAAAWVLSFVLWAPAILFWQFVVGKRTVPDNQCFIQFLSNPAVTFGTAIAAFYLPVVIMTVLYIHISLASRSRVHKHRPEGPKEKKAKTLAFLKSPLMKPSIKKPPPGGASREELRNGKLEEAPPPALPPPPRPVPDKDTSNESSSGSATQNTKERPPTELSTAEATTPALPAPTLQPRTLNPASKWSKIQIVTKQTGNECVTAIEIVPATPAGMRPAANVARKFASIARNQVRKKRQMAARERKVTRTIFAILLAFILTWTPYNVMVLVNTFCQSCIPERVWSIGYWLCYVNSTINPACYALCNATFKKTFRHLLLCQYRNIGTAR
# ASSAY EXPLANATION: rat M4 binding affinity (evaluated by Pfizer)
# MEASUREMENT SETUP: identified and evaluated by Pfizer
pKi: −log10 of the molar value.
RECORDED ENDPOINT: pKi

[[record]]
smiles_notation = "CNc1nc(C)c(C)c2c1CN(C(=O)C[C@H]1C[C@@H]1c1ccc(F)nc1)C2"
recorded_endpoint = "pKi"
result_number = 8.15

